System: Alopecurus myosuroides
protocol.notes: Herbicidal post-emergence action
Type: in vivo
particulars: post-emergence method, 80 g/ha
Each record here notes measured herbicidal effect against ALOMY (Alopecurus myosuroides).
Write the answer as a number in %, unit excluded.

Reference set, count: 3
>>> reported_value("COC(=O)OC1=C(c2c(C)cc(C)cc2C)C(=O)C2CC3(CC12)OCCCCO3 (racemic)")
100
>>> reported_value("CCc1cc(C)cc(CC)c1C1=C(O)C2CC(=NOCC(C)C)CC2C1=O (stereo not shown)")
90
>>> reported_value("Cc1cc(C)c(C2=C(OC(=O)C(C)C)C3CC4(CC3C2=O)OCC(C)CO4)c(C)c1 (stereo not shown)")
100

Now let's try a different one.
**Q:** Return value of herbicidal effect against ALOMY (Alopecurus myosuroides) for input CCc1cc(C)cc(C)c1C1=C(OC(=O)C(C)(C)C)C2CC3(COC(C)(C)O3)CC2C1=O (stereo not shown) , no commentary.
**A:** 70

###

Tested on: Alopecurus myosuroides
protocol.notes: Herbicidal post-emergence action
Type: in vivo
particulars: post-emergence method, 80 g/ha
Measured herbicidal effect against ALOMY (Alopecurus myosuroides) values are reported for all entries that follow.
Dear colleague, please return just the value in %, with no unit written.

>>> reported_value("CCc1cc(C)cc(CC)c1C1=C(OC(=O)OC)C2CC3(CC2C1=O)SCCCS3 (stereo not shown)")
90
>>> reported_value("CCc1cc(C)cc(CC)c1C1=C(O)[C@H]2CC3(C[C@H]2C1=O)SCCCS3 (relative stereo)")
30
>>> reported_value("CCc1cc(C)cc(CC)c1C1=C(O)[C@H]2CC3(C[C@H]2C1=O)OC(C)(C)C(C)(C)O3 (relative stereo)")
80

Proceeding to the next compound to report its herbicidal effect against ALOMY (Alopecurus myosuroides).
**Q:** # return herbicidal effect against ALOMY (Alopecurus myosuroides) for CCc1cc(C)cc(CC)c1C1=C(OC(=O)C(C)C)C2CC3(CC2C1=O)OC(C)CC(C)O3 (stereo not shown) , test system: Alopecurus myosuroides
**A:** 100
